// data source = ChEMBL document CHEMBL3758073

test system: MCF7; assay: Cytotoxicity against human MCF7 cells assessed as induction of cell death at 10 uM after 72 hrs by LDH assay; format: cell-based; details: mcf7, 72 h
VALUE KIND: Activity (%)
Give your result in % as a bare value.

Take a look at these entries with their results.
| COMPOUND | UNITS SYMBOL | NUMBER |
| --- | --- | --- |
| COc1ccc([C@@H]2[C@H](Oc3ccccc3)CN2c2cc(OC)c(OC)c(OC)c2)cc1O | % | 19.8 |
| COc1cc(N2C(=O)[C@@H](Oc3ccccc3)[C@H]2c2ccc(N)cc2)cc(OC)c1OC (relative stereo) | % | 14.7 |

[Q] Look up Activity of COc1cc(N2C(=O)[C@@H](Oc3ccccc3)[C@H]2c2cccc(O)c2)cc(OC)c1OC (relative stereo) and report it.
[A] 22

[Q] Look up Activity of COc1ccc([C@@H]2[C@H](Oc3ccccc3)C(=O)N2c2cc(OC)c(OC)c(OC)c2)cc1 (relative stereo) and report it.
[A] 6.5

====

assay: Half life of the compound in pH 4 after 3 to 24 hrs by HPLC; type: physicochemical
VALUE KIND: half-life (h)
Give your result in h as a bare value.

| COMPOUND | VALUE KIND | NUMBER |
| --- | --- | --- |
| COc1ccc([C@@H]2[C@@H](Oc3ccccc3)C(=O)N2c2cc(OC)c(OC)c(OC)c2)cc1N (relative stereo) | half-life | 18 |

We now examine a further compound.
[Q] Look up half-life of COc1ccc([C@@H]2[C@@H](Oc3ccccc3)C(=O)N2c2cc(OC)c(OC)c(OC)c2)cc1O (relative stereo) and report it.
[A] 12

====

assay: Half life of the compound in pH 7.4 after 3 to 24 hrs by HPLC; assay type: physicochemical
VALUE KIND: half-life (h)
Give your result in h as a bare value.

[Q] Look up half-life of COc1ccc([C@@H]2[C@@H](Oc3ccccc3)C(=O)N2c2cc(OC)c(OC)c(OC)c2)cc1O (relative stereo) and report it.
[A] 8

====

test system: MCF7; experiment: Antiproliferative activity against human MCF7 cells assessed as cell viability pre-incubated for 24 hrs with CO2 followed by compound addition after 72 hrs by MTT assay; format: functional, cell-based
VALUE KIND: IC50 (µM)
Give your result in µM as a bare value.

[Q] Give IC50; test system MCF7; molecule COc1cc(N2C(=O)[C@@H](Oc3ccccc3)[C@H]2c2ccc(C#N)cc2)cc(OC)c1OC (relative stereo)
[A] 31.6

[Q] Give IC50; test system MCF7; molecule COc1cc(N2C(=O)[C@@H](Oc3ccccc3)[C@H]2c2ccc(S(C)(=O)=O)cc2)cc(OC)c1OC (relative stereo)
[A] 62

[Q] Give IC50; test system MCF7; molecule COc1cc(N2C(=O)[C@@H](Oc3ccccc3)[C@H]2c2ccc3c(c2)OCO3)cc(OC)c1OC (relative stereo)
[A] 48

[Q] Give IC50; test system MCF7; molecule COc1cccc([C@@H]2[C@H](Oc3ccccc3)C(=O)N2c2cc(OC)c(OC)c(OC)c2)c1 (relative stereo)
[A] 171

====

target: Tubulin (Sus scrofa) (UniProt P02554+P02550); experiment: Inhibition of porcine tubulin polymerization assessed as inhibition of tubulin assembly Vmax rate at 10 uM by spectrophotometric analysis; format: protein assay
Sequence (P02550 whole entry, looked up): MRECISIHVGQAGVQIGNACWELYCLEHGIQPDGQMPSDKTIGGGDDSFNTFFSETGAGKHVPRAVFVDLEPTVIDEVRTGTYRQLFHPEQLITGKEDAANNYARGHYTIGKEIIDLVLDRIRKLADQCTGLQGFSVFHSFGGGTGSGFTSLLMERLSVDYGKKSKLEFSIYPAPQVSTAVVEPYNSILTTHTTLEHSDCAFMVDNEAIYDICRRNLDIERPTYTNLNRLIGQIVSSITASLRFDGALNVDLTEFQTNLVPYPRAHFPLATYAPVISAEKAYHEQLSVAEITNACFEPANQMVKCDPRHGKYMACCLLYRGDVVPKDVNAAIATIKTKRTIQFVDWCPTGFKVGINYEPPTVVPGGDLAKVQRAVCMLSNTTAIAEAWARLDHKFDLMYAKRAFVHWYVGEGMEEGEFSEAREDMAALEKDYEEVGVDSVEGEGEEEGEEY
Sequence (P02554 whole entry, looked up): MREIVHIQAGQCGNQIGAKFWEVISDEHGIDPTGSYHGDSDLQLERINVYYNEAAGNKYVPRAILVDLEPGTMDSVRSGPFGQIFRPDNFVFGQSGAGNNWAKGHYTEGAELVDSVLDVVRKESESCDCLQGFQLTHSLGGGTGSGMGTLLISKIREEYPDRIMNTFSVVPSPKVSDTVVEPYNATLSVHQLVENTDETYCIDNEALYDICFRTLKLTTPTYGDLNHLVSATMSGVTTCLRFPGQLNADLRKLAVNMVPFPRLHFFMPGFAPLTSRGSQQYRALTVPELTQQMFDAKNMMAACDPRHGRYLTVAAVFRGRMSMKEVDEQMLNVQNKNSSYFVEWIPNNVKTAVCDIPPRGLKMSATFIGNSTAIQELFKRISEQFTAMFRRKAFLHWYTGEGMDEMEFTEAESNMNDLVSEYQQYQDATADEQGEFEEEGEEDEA
Below, each of the compounds is paired with its reported fold change (FC) value.
Answer with the value's number alone.

Take a look at these entries with their results.
| COMPOUND | ASSAYED SYSTEM | VALUE KIND | NUMBER |
| --- | --- | --- | --- |
| COc1ccc([C@@H]2[C@@H](Oc3ccccc3)C(=O)N2c2cc(OC)c(OC)c(OC)c2)cc1O (relative stereo) | Tubulin (Sus scrofa) (UniProt P02554+P02550) | fold change (FC) | 3.2 |
| COc1ccc([C@@H]2[C@H](Oc3ccccc3)C(=O)N2c2cc(OC)c(OC)c(OC)c2)cc1O (relative stereo) | Tubulin (Sus scrofa) (UniProt P02554+P02550) | fold change (FC) | 1.1 |
| COc1ccc(/C=C\c2cc(OC)c(OC)c(OC)c2)cc1O | Tubulin (Sus scrofa) (UniProt P02554+P02550) | fold change (FC) | 6 |
| COc1cc(N2C(=O)[C@@H](Oc3ccccc3)[C@H]2c2ccc(N(C)C)cc2)cc(OC)c1OC (relative stereo) | Tubulin (Sus scrofa) (UniProt P02554+P02550) | fold change (FC) | 0 |
| COc1ccc([C@@H]2[C@@H](Oc3ccccc3)C(=O)N2c2cc(OC)c(OC)c(OC)c2)cc1N (relative stereo) | Tubulin (Sus scrofa) (UniProt P02554+P02550) | fold change (FC) | 1.8 |

We now examine a further compound.
[Q] Look up fold change (FC) of COc1cc(N2C(=O)[C@H](Oc3ccccc3)[C@H]2c2ccc(C#N)cc2)cc(OC)c1OC (relative stereo) and report it.
[A] 0

====

test system: MCF7; assay: Cytotoxicity against human MCF7 cells assessed as induction of cell death at 10 uM after 72 hrs by LDH assay; type: cell-based; conditions: mcf7, 72 h
VALUE KIND: Activity (%)
Give your result in % as a bare value.

Take a look at these entries with their results.
| COMPOUND | Activity / % |
| --- | --- |
| COc1cc(N2C(=O)[C@@H](Oc3ccccc3)[C@H]2c2ccc(S(C)(=O)=O)cc2)cc(OC)c1OC (relative stereo) | 10.2 |
| COc1ccc([C@@H]2[C@H](Oc3ccccc3)C(=O)N2c2cc(OC)c(OC)c(OC)c2)c(N)c1O (relative stereo) | 52 |
| COc1cc(N2C(=O)[C@@H](Oc3ccccc3)[C@H]2c2ccc3ccccc3c2)cc(OC)c1OC (relative stereo) | 10.7 |

We now examine a further compound.
[Q] Look up Activity of COc1ccc([C@@H]2[C@@H](Oc3ccccc3)C(=O)N2c2cc(OC)c(OC)c(OC)c2)cc1N (relative stereo) and report it.
[A] 10.2

====

Below, each of the molecules is paired with its reported Activity value.
system: MCF7; assay: Cytotoxicity against human MCF7 cells assessed as induction of cell death at 10 uM after 72 hrs by LDH assay; type: cell-based; conditions: mcf7, 72 h
Give your result in % as a bare value.

Take a look at these entries with their results.
| MOLECULE | Activity [%] |
| --- | --- |
| COc1ccc([C@@H]2[C@H](Oc3ccccc3)C(=O)N2c2cc(OC)c(OC)c(OC)c2)cc1O (relative stereo) | 2.8 |
| COc1cc(N2C(=O)[C@@H](Oc3ccccc3)[C@H]2c2ccc3c(c2)OCO3)cc(OC)c1OC (relative stereo) | 8.3 |
| COc1cc(N2C(=O)[C@@H](Oc3ccccc3)[C@H]2c2cccc(N)c2)cc(OC)c1OC (relative stereo) | 48 |
| COc1cc(N2C(=O)[C@@H](Oc3ccccc3)[C@H]2c2ccc(N=[N+]=[N-])cc2)cc(OC)c1OC (relative stereo) | 5.8 |
| COc1cc(N2C(=O)[C@@H](Oc3ccccc3)[C@H]2c2ccc(N(C)C)cc2)cc(OC)c1OC (relative stereo) | 5.9 |

[Q] Look up Activity of COc1cc(N)c([C@@H]2[C@H](Oc3ccccc3)C(=O)N2c2cc(OC)c(OC)c(OC)c2)cc1O (relative stereo) and report it.
[A] 70

[Q] Look up Activity of COc1ccc([C@@H]2[C@H](Oc3ccccc3)C(=O)N2c2cc(OC)c(OC)c(OC)c2)cc1OC (relative stereo) and report it.
[A] 11.2

====

assay: Toxicity in ip dosed athymic nude mouse; assay type: organism-based; conditions: in vivo
VALUE KIND: MTD (mg/kg)
Give your result in mg/kg as a bare value.

[Q] Look up MTD of COc1ccc([C@@H]2[C@@H](Oc3ccccc3)C(=O)N2c2cc(OC)c(OC)c(OC)c2)cc1N (relative stereo) and report it.
[A] 100

====

system: MCF7; experiment: Cytotoxicity against human MCF7 cells assessed as induction of cell death at 10 uM after 72 hrs by LDH assay; format: cell-based; conditions: mcf7, 72 h
Grouping by measured Activity is done with the following cut points: range A = under 6%, range B = from 6% up to 10%, range C = 10% and over

For orientation, consider the following solved cases.
| MOLECULE | ASSIGNED CLASS |
| --- | --- |
| COc1ccc(N2C(=O)[C@@H](Oc3ccccc3)[C@H]2c2ccc(OC)c(O)c2)cc1 (relative stereo) | range C |
| COc1ccc([C@@H]2[C@@H](Oc3ccccc3)C(=O)N2c2cc(OC)c(OC)c(OC)c2)cc1[N+](=O)[O-] (relative stereo) | range A |
| COc1ccc([C@@H]2[C@H](Oc3cc(OC)c(OC)c(OC)c3)C(=O)N2c2cc(OC)c(OC)c(OC)c2)cc1O (relative stereo) | range C |
| COc1cc(N2C(=O)[C@@H](Oc3ccccc3)[C@H]2c2ccc(SC)cc2)cc(OC)c1OC (relative stereo) | range B |
| COc1cc(N2C(=O)[C@@H](Oc3ccccc3)[C@H]2c2cccc([N+](=O)[O-])c2)cc(OC)c1OC (relative stereo) | range C |
| COc1ccc([C@@H]2[C@H](Oc3ccccc3)C(=O)N2c2cc(OC)c(OC)c(OC)c2)cc1Br (relative stereo) | range B |

[Q] Please report the category associated with COc1cc([C@@H]2[C@H](Oc3ccccc3)C(=O)N2c2cc(OC)c(OC)c(OC)c2)cc(OC)c1OC (relative stereo) , nothing else.
[A] range A

[Q] Please report the category associated with COc1cc(N2C(=O)[C@@H](Oc3ccccc3)[C@H]2c2ccc(C#N)cc2)cc(OC)c1OC (relative stereo) , nothing else.
[A] range A

[Q] Please report the category associated with COc1ccc([C@@H]2[C@H](Oc3ccccc3)C(=O)N2c2cc(OC)c(OC)c(OC)c2)cc1OC(=O)CCCc1ccc(N(CCCl)CCCl)cc1 (relative stereo) , nothing else.
[A] range B

[Q] Please report the category associated with COc1cccc([C@@H]2[C@H](Oc3ccccc3)C(=O)N2c2cc(OC)c(OC)c(OC)c2)c1 (relative stereo) , nothing else.
[A] range C

[Q] Please report the category associated with O=C(O)CCCc1ccc(N(CCCl)CCCl)cc1 [CHLORAMBUCIL] , nothing else.
[A] range B

[Q] Please report the category associated with COc1cc(N2C(=O)[C@@H](Oc3ccccc3)[C@H]2c2cc(O)c(OC)c([N+](=O)[O-])c2)cc(OC)c1OC (relative stereo) , nothing else.
[A] range C

[Q] Please report the category associated with COc1ccc([C@@H]2[C@@H](Oc3ccccc3)C(=O)N2c2cc(OC)c(OC)c(OC)c2)cc1O (relative stereo) , nothing else.
[A] range C
